# Test system: live pathological cells (LPC) in bone marrow samples of AML patients
# protocol: PharmaFlow PM test: ex vivo drug sensitivity of whole bone marrow samples, population pharmacodynamic models
# Format: cell-based, human
# condition.label: Homo sapiens; typical population value; AML bone marrow samples, 48 h incubation
# Experimental: Ex vivo drug sensitivity analysis was made using the PharmaFlow platform (previously termed ExviTech®) maintaining the bone marrow (BM) microenvironment. A minimum BM sample volume between one and two mL was collected by aspiration at AML diagnosis, before starting induction chemotherapy, and was processed by an automated method 24 hours after extraction. Samples were incubated with CYT, IDA and/or CYT+IDA for 48 hours. […]
Measured EC50 accompanies every entry in the list below.
Returns: string containing the numeric result and its unit.

compound.structure.string	EC50
Nc1ccn([C@@H]2O[C@H](CO)[C@@H](O)[C@@H]2O)c(=O)n1	6.94 µM

Could you now look at the following molecule, please?
## Task # query: EC50 of entry `CC(=O)[C@]1(O)Cc2c(O)c3c(c(O)c2[C@@H](O[C@H]2C[C@H](N)[C@H](O)[C@H](C)O2)C1)C(=O)c1ccccc1C3=O`
## Result 0.087 µM
